Property: pIC50; scope: individual molecules
SUBJECT OF TEST: Recombinant Human NF-kappaB-Inducing Kinase (NIK/MAP3K14) (Homo sapiens)
Sequence (Q99558 whole entry): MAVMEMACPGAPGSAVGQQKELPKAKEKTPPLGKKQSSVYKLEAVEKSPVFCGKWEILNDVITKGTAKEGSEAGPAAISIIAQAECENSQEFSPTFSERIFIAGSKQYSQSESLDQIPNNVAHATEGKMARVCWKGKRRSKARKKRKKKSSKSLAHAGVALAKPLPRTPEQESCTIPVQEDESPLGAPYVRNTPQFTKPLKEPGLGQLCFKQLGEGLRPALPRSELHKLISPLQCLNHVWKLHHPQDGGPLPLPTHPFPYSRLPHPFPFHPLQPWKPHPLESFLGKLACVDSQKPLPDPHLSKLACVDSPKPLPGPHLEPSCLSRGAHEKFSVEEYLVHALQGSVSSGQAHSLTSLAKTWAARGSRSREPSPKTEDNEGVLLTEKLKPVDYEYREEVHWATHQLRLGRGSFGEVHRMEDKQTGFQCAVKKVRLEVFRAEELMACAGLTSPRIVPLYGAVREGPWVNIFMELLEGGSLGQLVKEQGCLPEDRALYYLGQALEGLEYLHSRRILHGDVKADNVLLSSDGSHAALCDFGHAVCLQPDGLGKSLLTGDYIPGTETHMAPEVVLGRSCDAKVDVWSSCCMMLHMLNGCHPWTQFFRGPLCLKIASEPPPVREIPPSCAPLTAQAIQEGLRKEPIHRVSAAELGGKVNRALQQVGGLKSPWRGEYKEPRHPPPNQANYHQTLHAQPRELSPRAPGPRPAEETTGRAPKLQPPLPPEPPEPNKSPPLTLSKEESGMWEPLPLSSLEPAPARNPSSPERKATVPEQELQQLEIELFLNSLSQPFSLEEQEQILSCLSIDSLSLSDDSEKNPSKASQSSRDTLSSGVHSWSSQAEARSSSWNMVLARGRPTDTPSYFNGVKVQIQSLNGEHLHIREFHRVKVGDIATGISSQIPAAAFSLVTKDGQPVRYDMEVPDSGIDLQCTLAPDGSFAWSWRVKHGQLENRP
RUN DESCRIPTION: Inhibition of auto-phosphorylation of recombinant human NIK/MAP3K14 (AlphaScreen)
MEASUREMENT SETUP: 25 microM ATP, 0.2 nM GST-tagged NIK/MAP3K14, 1 h at 25° C.; averaged over all measurements on all batches; read-out: Alpha-Screen IC50
Method: Inhibition of Auto-Phosphorylation of Recombinant Human NF-kappaB-Inducing Kinase (NIK/MAP3K14) Activity (AlphaScreen®) NIK/MAP3K14 auto-phosphorylation activity was measured using the AlphaScreen® (αscreen) format (Perkin Elmer). All compounds tested were dissolved in dimethyl sulfoxide (DMSO) and further dilutions were made in assay buffer. […] Protein A Acceptor and Glutathione-Donor beads were added before reading using an EnVision® Multilabel Plate Reader (Perkin Elmer). […]
pIC50 is a log-scale quantity: -log10 of the concentration expressed in molar.

CC(C)n1cc(-c2nc(N)ncc2OCCN2CCOCC2)c2cc(C#CC(C)(O)C3CC3)ncc21 (stereo not shown) [Compound 4] = 6.82
CC(O)(C#Cc1cc2c(-c3nc(N)ncc3F)c[nH]c2c(C2CC2)n1)C1CC1 (stereo not shown) [Compound 1] = 7.02
Cc1cc(C(C)(O)C#Cc2cc3c(-c4nc(N)ncc4F)c[nH]c3c(C3CC3)n2)no1 (stereo not shown) [Compound 23] = 7.17
CC(O)(C#Cc1cc2c(-c3nc(N)ncc3F)c[nH]c2cn1)c1nccs1 (single isomer, unassigned) [Compound 30] = 7.70

Which value of pIC50 has been reported for Nc1ncc(F)c(-c2c[nH]c3c(C4CC4)nc(C#CC4(O)CCCC4)cc23)n1 [Compound 22] in the records?
7.43

Same for CC(O)(C#Cc1cc2c(-c3nc(N)ncc3F)c[nH]c2cn1)c1nccs1 (single isomer, unassigned) [Compound 31]
8.70

Now try Cc1cc(C(C)(O)C#Cc2cc3c(-c4nc(N)ncc4F)cn(C4CN(C5CC5)C4)c3cn2)no1 (stereo not shown) [Compound 16] .
7.47

====

Here, each record is paired with measured IC50 data.
SUBJECT OF TEST: Recombinant Human NF-kappaB-Inducing Kinase (NIK/MAP3K14) (Homo sapiens)
RUN DESCRIPTION: Inhibition of auto-phosphorylation of recombinant human NIK/MAP3K14 (AlphaScreen)
MEASUREMENT SETUP: 25 microM ATP, 0.2 nM GST-tagged NIK/MAP3K14, 1 h at 25° C.; averaged over all measurements on all batches; read-out: Alpha-Screen IC50
Write the numeric value and append its unit.

CC(O)C#Cc1cc2c(-c3nc(N)ncc3F)cn(C3CN(C4CC4)C3)c2cn1 (stereo not shown) = 69 nM
CC(O)(C#Cc1cc2c(-c3nc(N)ncc3F)cn(C3CN(C4CC4)C3)c2cn1)c1nccs1 (single isomer, unassigned) [Compound 29] = 735 nM
CCCCN1CCC(n2cc(-c3nc(N)ncc3F)c3cc(C#CC(C)(O)C4CC4)ncc32)C1 (stereo not shown) [Compound 11] = 21 nM
CC(O)(C#Cc1cc2c(-c3nc(N)ncc3F)c[nH]c2c(C2CC2)n1)C1CC1 (single isomer, unassigned) [Compound 13] = 29 nM
Cc1nc(C(C)(O)C#Cc2cc3c(-c4nc(N)ncc4F)cn(C4CN(C5CC5)C4)c3cn2)no1 (stereo not shown) = 144 nM

Entry CCN1CCC(n2cc(-c3nc(N)ncc3F)c3cc(C#CC(C)(O)C4CC4)nc(C)c32)C1 (stereo not shown) has what IC50?
58 nM

Now consider COCCCN1CCC(n2cc(-c3nc(N)ncc3F)c3cc(C#CC(C)(O)C4CC4)ncc32)C1 (stereo not shown) and answer again.
30 nM

====

Examples of compounds with documented EC50 follow.
System: JJN-3 cells
RUN DESCRIPTION: Antiproliferative activity on JJN-3 cells (CellTiter-Glo)
Format: cell-based, human
MEASUREMENT SETUP: 72 hr treatment, averaged values
Answer in µM, number only, no unit symbol.

// below: answered compounds
CC(O)(C#Cc1cc2c(-c3nc(N)ncc3F)cn(C3CN(C4CC4)C3)c2cn1)c1nccs1 (single isomer, unassigned) [Compound 29] = 1.93
[2H]C([2H])([2H])C(O)(C#Cc1cc2c(-c3nc(N)ncc3F)cn(C3CCCN(CCC)C3)c2cn1)C([2H])([2H])[2H] (single isomer, unassigned) [Compound 25] = 0.102
CC(O)(C#Cc1cc2c(-c3nc(N)ncc3F)c[nH]c2cn1)c1nccs1 (single isomer, unassigned) [Compound 30] = 2.08

Now look at this one.
Tell me the measured EC50 of Cc1cc(C(C)(O)C#Cc2cc3c(-c4nc(N)ncc4F)c[nH]c3cn2)no1 (single isomer, unassigned) [Compound 32] , please.
4.34

====

// reported pIC50 for each item listed
SUBJECT OF TEST: Recombinant Human NF-kappaB-Inducing Kinase (NIK/MAP3K14) (Homo sapiens)
RUN DESCRIPTION: Inhibition of auto-phosphorylation of recombinant human NIK/MAP3K14 (AlphaScreen)
MEASUREMENT SETUP: 25 microM ATP, 0.2 nM GST-tagged NIK/MAP3K14, 1 h at 25° C.; averaged over all measurements on all batches; read-out: Alpha-Screen IC50
pIC50 here: minus log base 10 of the concentration, concentration in moles per litre.

Sample records with pIC50:
[2H]C([2H])([2H])C(O)(C#Cc1cc2c(-c3nc(N)ncc3F)cn(C3CCCN(CCC)C3)c2cn1)C([2H])([2H])[2H] (stereo not shown) [Compound 12] = 7.25
[2H]C([2H])([2H])C(O)(C#Cc1cc2c(-c3nc(N)ncc3F)cn(C3CCCN(CCC)C3)c2cn1)C([2H])([2H])[2H] (single isomer, unassigned) [Compound 25] = 7.09
CC(O)(C#Cc1cc2c(-c3nc(N)ncc3F)cn(C3CN(C4CC4)C3)c2cn1)c1nccs1 (stereo not shown) [Compound 14] = 7.80
CC(C)N1CCC(n2cc(-c3nc(N)ncc3F)c3cc(C#CC(C)(O)C4CC4)ncc32)C1 (stereo not shown) = 6.81
Cc1cc(C(C)(O)C#Cc2cc3c(-c4nc(N)ncc4F)c[nH]c3cn2)no1 (single isomer, unassigned) [Compound 33] = 8.52

What does the data say about its pIC50? Entry: Cc1cc(C(C)(O)C#Cc2cc3c(-c4nc(N)ncc4F)c[nH]c3cn2)no1 (single isomer, unassigned) [Compound 32]
6.42

====

System: LP-1 cells
RUN DESCRIPTION: Antiproliferative activity on LP-1 cells (CellTiter-Glo)
Assay type: cell-based, human
MEASUREMENT SETUP: Homo sapiens, LP-1, 72 h, 72 hr treatment, averaged values
METRIC: EC50 (µM)
Supply the numeric figure in µM, leaving out any unit text.

The following compounds have reported results that may help.
Cc1cc(C(C)(O)C#Cc2cc3c(-c4nc(N)ncc4F)cn(C4CN(C5CC5)C4)c3cn2)no1 (stereo not shown) = 1.8
Cc1cc(C(C)(O)C#Cc2cc3c(-c4nc(N)ncc4F)c[nH]c3c(C3CC3)n2)no1 (stereo not shown) = 1.28
COCCN1CCC(n2cc(-c3nc(N)ncc3F)c3cc(C#CC(C)(O)C4CC4)ncc32)C1 (stereo not shown) = 0.32

Next compound, EC50 to be filled in.
Please give the measured EC50 for this compound: `Nc1ncc(F)c(-c2c[nH]c3c(C4CC4)nc(C#CC4(O)CCCC4)cc23)n1`
0.11

====

Quick reference for EC50 among some compounds
Tested on: JJN-3 cells
RUN DESCRIPTION: Antiproliferative activity on JJN-3 cells (CellTiter-Glo)
Format: cell-based, human
MEASUREMENT SETUP: 72 hr treatment, averaged values
Write the number in nM without appending the unit.

These recorded examples may help you get a feel for the data.
[2H]C([2H])([2H])C(O)(C#Cc1cc2c(-c3nc(N)ncc3F)cn(C3CCCN(CCC)C3)c2cn1)C([2H])([2H])[2H] (stereo not drawn) [Compound 12] = 38
Cc1cc(C(C)(O)C#Cc2cc3c(-c4nc(N)ncc4F)c[nH]c3cn2)no1 (single isomer, unassigned) [Compound 33] = 593
[2H]C([2H])([2H])C(O)(C#Cc1cc2c(-c3nc(N)ncc3F)cn(C3CCCN(CCC)C3)c2cn1)C([2H])([2H])[2H] (single isomer, unassigned) [Compound 24] = 135
CCCCN1CCC(n2cc(-c3nc(N)ncc3F)c3cc(C#CC(C)(O)C4CC4)ncc32)C1 (single isomer, unassigned) = 92
CC(O)(C#Cc1cc2c(-c3nc(N)ncc3F)cn(C3CN(C4CC4)C3)c2cn1)c1nccs1 (single isomer, unassigned) [Compound 28] = 408

Entry CC(O)(C#Cc1cc2c(-c3nc(N)ncc3F)c[nH]c2cn1)c1nccs1 (single isomer, unassigned) [Compound 31] has what EC50?
634
